Where a name gives a salt, the structure may show the parent alone.
List of melting point values.
readoutLabel: melting point

>>> result("COc1ccc(NC(=S)N2CCn3c(c(C(N)=O)c(Cl)c3-c3ccccc3)C2)cc1")
"176 to 178 °C"
>>> result("Cc1ccc(-c2c(Cl)c(C(N)=O)c3n2CCN(C(=O)Nc2ccc4ncccc4c2)C3)cn1")
"221 to 222 °C"
>>> result("NC(=O)c1c(Cl)c(C2CC2)n2c1CNCC2 (as salt: trifluoroacetic acid salt)")
"237 to 239 °C"
>>> result("COc1ccc(NC(=O)N2CCn3c(c(C(N)=O)c(Cl)c3-c3ccccc3)C2)cc1")
"246 to 248 °C"
>>> result("NC(=O)c1c(Cl)cn2c1CN(S(=O)(=O)c1ccc(-c3ccccn3)s1)CC2")
"213 to 214 °C"
